# study.system: PKR(G332S) (Homo sapiens, UniProt P30613, G332S)
# Sequence (P30613 whole entry G332S): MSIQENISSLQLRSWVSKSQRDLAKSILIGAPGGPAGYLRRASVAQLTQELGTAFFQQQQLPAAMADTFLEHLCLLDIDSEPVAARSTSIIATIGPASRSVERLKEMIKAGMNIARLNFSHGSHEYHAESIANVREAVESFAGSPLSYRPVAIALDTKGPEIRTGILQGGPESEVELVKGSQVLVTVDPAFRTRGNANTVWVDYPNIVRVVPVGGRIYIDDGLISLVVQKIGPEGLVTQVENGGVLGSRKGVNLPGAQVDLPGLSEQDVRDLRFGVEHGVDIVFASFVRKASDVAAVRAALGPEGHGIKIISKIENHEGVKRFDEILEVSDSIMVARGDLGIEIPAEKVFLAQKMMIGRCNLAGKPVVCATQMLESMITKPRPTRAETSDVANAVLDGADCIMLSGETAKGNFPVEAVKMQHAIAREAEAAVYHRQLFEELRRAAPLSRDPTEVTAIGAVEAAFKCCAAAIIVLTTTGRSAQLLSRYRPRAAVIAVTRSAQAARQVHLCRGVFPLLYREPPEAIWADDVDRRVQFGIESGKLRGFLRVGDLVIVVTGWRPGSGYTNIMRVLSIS
# assay.summary: Luminescence Biochemical Assay (Kinase Glo Plus), PKR G332S mutant
# assay.context: with FBP, read-out: AC50 LUM KGP FBP AC50 μM gmean (column A)
The following compounds are shown together with reported AC50 values.
measurement.name: AC50

compound="O=C(C(O)c1ccc(F)c(F)c1)N1CC2=C(C1)CN(S(=O)(=O)c1ccc(OC(F)F)cc1)C2 (stereo not shown) [Example 18-23]" study_system="PKR(G332S) (Homo sapiens, UniProt P30613, G332S)" measured_value="0.1 to 1 µM"
compound="O=C(Cn1cccn1)N1CC2=C(C1)CN(S(=O)(=O)c1ccc(OC(F)F)cc1)C2 [Example 18-21]" study_system="PKR(G332S) (Homo sapiens, UniProt P30613, G332S)" measured_value="0.1 to 1 µM"
compound="O=C([C@H](O)c1ccccc1)N1CC2=C(C1)CN(S(=O)(=O)c1cc(F)cc(F)c1)C2 [Example 18-52]" study_system="PKR(G332S) (Homo sapiens, UniProt P30613, G332S)" measured_value="1 to 40 µM"
compound="O=C(NCc1ccc(F)cc1)N1CC2=C(C1)CN(S(=O)(=O)c1cccc3nonc13)C2 [Example 20-24]" study_system="PKR(G332S) (Homo sapiens, UniProt P30613, G332S)" measured_value="1 to 40 µM"
compound="O=C(N1CC2=C(C1)CN(S(=O)(=O)c1cccc3cccnc13)C2)N1CC(O)(Cc2ccccc2)C1 [Example 12-1]" study_system="PKR(G332S) (Homo sapiens, UniProt P30613, G332S)" measured_value="1 to 40 µM"
compound="O=C(NCc1ccccc1F)N1CC2=C(C1)CN(S(=O)(=O)c1cccnc1)C2 [Example 21-37]" study_system="PKR(G332S) (Homo sapiens, UniProt P30613, G332S)" measured_value="0.1 to 1 µM"
compound="O=C([C@H](O)c1ccc(F)cc1)N1CC2=C(C1)CN(S(=O)(=O)c1cccnc1)C2 [Example 18-62]" study_system="PKR(G332S) (Homo sapiens, UniProt P30613, G332S)" measured_value="1 to 40 µM"
compound="COc1ccc(CNC(=O)N2CC3=C(C2)CN(S(=O)(=O)c2ccc(F)cc2)C3)cc1 [Example 20-3]" study_system="PKR(G332S) (Homo sapiens, UniProt P30613, G332S)" measured_value="≤ 0.1 µM"
compound="O=C(Cc1ccccn1)N1CC2=C(C1)CN(S(=O)(=O)c1ccc(OC(F)F)cc1)C2 [Example 8-1]" study_system="PKR(G332S) (Homo sapiens, UniProt P30613, G332S)" measured_value="≤ 0.1 µM"
compound="Cc1cc(COC(=O)N2CC3=C(C2)CN(S(=O)(=O)c2ccc(OC(F)F)cc2)C3)no1 [Example 22-5]" study_system="PKR(G332S) (Homo sapiens, UniProt P30613, G332S)" measured_value="0.1 to 1 µM"
compound="COc1cccc(CNC(=O)N2CC3=C(C2)CN(S(=O)(=O)c2cccc(F)c2)C3)c1 [Example 20-8]" study_system="PKR(G332S) (Homo sapiens, UniProt P30613, G332S)" measured_value="1 to 40 µM"
compound="O=C(OCC1CC1)N1CC2=C(C1)CN(S(=O)(=O)c1ccc(OC(F)F)cc1)C2 [Example 22-2]" study_system="PKR(G332S) (Homo sapiens, UniProt P30613, G332S)" measured_value="1 to 40 µM"
compound="COc1ccccc1CNC(=O)N1CC2=C(C1)CN(S(=O)(=O)c1ccc(F)cc1)C2 [Example 20-6]" study_system="PKR(G332S) (Homo sapiens, UniProt P30613, G332S)" measured_value="≤ 0.1 µM"
compound="O=C([C@H]1CCCO1)N1CC2=C(C1)CN(S(=O)(=O)c1ccccn1)C2 [Example 18-60]" study_system="PKR(G332S) (Homo sapiens, UniProt P30613, G332S)" measured_value="1 to 40 µM"
compound="O=C(NCc1ccccc1F)N1CC2=C(C1)CN(S(=O)(=O)c1ccc(C(F)(F)F)nc1)C2 [Example 21-40]" study_system="PKR(G332S) (Homo sapiens, UniProt P30613, G332S)" measured_value="1 to 40 µM"
compound="COc1cccc(CNC(=O)N2CC3=C(C2)CN(S(=O)(=O)c2ccc(OC(F)F)cc2)C3)c1 [Example 21-11]" study_system="PKR(G332S) (Homo sapiens, UniProt P30613, G332S)" measured_value="≤ 0.1 µM"
compound="O=C(N1CC2=C(C1)CN(S(=O)(=O)c1ccccn1)C2)C1(O)CC1 [Example 18-65]" study_system="PKR(G332S) (Homo sapiens, UniProt P30613, G332S)" measured_value="1 to 40 µM"
compound="O=C([C@H](O)c1ccccc1)N1CC2=C(C1)CN(S(=O)(=O)c1ccccn1)C2 [Example 9-2]" study_system="PKR(G332S) (Homo sapiens, UniProt P30613, G332S)" measured_value="0.1 to 1 µM"
compound="O=C(NCc1ccc(F)cc1)N1CC2=C(C1)CN(S(=O)(=O)c1ccc3ncsc3c1)C2 [Example 21-19]" study_system="PKR(G332S) (Homo sapiens, UniProt P30613, G332S)" measured_value="0.1 to 1 µM"
compound="COc1cccc(CNC(=O)N2CC3=C(C2)CN(S(=O)(=O)c2ccc(F)cc2)C3)c1 [Example 20-4]" study_system="PKR(G332S) (Homo sapiens, UniProt P30613, G332S)" measured_value="0.1 to 1 µM"
compound="CN1CCOc2ccc(S(=O)(=O)N3CC4=C(CN(C(=O)[C@H]5CCCO5)C4)C3)cc21 [Example 18-2]" study_system="PKR(G332S) (Homo sapiens, UniProt P30613, G332S)" measured_value="1 to 40 µM"
compound="O=C(Cc1ccc(F)cc1F)N1CC2=C(C1)CN(S(=O)(=O)c1ccccn1)C2 [Example 18-67]" study_system="PKR(G332S) (Homo sapiens, UniProt P30613, G332S)" measured_value="0.1 to 1 µM"

* * *

Entries annotated with measured Emax
# study.system: UniProtKB P30613
# assay.summary: Luminescence Biochemical Assay (Kinase Glo Plus), wild type PKR
# assay.context: without FBP, read-out: AC50 LUM KGP woFBP MAX % FOLD mean
measurement.name: Emax

query_smiles=Cc1nc(C)c(C(=O)N2CC3=C(C2)CN(S(=O)(=O)c2ccc4occc4c2)C3)s1 study_system="UniProtKB P30613" measured_value="75 to 250%"
query_smiles=O=C(NCc1ccc(F)cc1)N1CC2=C(C1)CN(S(=O)(=O)c1ccc(OC(F)F)cc1)C2 study_system="UniProtKB P30613" measured_value="250 to 500%"
query_smiles=CN1CCOc2ccc(S(=O)(=O)N3CC4=C(CN(C(=O)[C@@H]5CCCO5)C4)C3)cc21 study_system="UniProtKB P30613" measured_value="75 to 250%"
query_smiles=O=C(NCc1ccccc1F)N1CC2=C(C1)CN(S(=O)(=O)c1ccccn1)C2 study_system="UniProtKB P30613" measured_value="250 to 500%"

* * *

# study.system: PKR(R510Q) (Homo sapiens, UniProt P30613, R510Q)
# Sequence (P30613 whole entry R510Q): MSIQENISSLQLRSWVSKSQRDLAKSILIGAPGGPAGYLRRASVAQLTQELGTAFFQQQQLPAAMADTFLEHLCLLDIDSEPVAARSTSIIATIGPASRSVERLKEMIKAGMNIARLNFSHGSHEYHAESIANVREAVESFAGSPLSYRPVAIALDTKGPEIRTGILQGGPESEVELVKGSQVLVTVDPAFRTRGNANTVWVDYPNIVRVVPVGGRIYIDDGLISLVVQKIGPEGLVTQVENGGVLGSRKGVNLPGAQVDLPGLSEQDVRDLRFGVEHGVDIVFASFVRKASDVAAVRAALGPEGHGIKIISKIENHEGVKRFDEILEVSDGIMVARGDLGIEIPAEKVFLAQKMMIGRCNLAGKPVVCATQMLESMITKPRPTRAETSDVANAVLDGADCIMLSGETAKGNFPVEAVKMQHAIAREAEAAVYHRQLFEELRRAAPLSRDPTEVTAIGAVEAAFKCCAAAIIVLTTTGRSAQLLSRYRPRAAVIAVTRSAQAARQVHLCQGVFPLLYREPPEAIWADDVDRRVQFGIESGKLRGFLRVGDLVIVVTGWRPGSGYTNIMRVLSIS
# assay.summary: Luminescence Biochemical Assay (Kinase Glo Plus), PKR R510Q mutant
# assay.context: without FBP, 1.54 μM compound, read-out: AC50 LUM KGP woFBP % Fold@1.54 μM mean
Quick reference: activation at 1.54 µM of the listed items.
measurement.name: activation at 1.54 µM

compound=O=C([C@H](O)c1ccccc1)N1CC2=C(C1)CN(S(=O)(=O)c1ccc(Cl)s1)C2 measured_value="75 to 250%"
compound=COc1cccc(CNC(=O)N2CC3=C(C2)CN(S(=O)(=O)c2ccc(F)cc2)C3)c1 measured_value="75 to 250%"
compound="O=C([C@@H](O)c1ccccn1)N1CC2=C(C1)CN(S(=O)(=O)c1ccc(OC(F)F)cc1)C2 (single isomer, unassigned)" measured_value="250 to 50000%"
compound=O=C(NCc1ccno1)N1CC2=C(C1)CN(S(=O)(=O)c1ccc3ncsc3c1)C2 measured_value="75 to 250%"
compound=Cc1cccc(Cl)c1S(=O)(=O)N1CC2=C(CN(C(=O)[C@@H](O)c3ccccc3)C2)C1 measured_value="75 to 250%"
compound=N#Cc1ccccc1S(=O)(=O)N1CC2=C(CN(C(=O)[C@H](O)c3ccccc3)C2)C1 measured_value="75 to 250%"
compound=O=C(NCc1ccc(F)cc1)N1CC2=C(C1)CN(S(=O)(=O)c1ccc(OC(F)F)cc1)C2 measured_value="250 to 50000%"
